# assayed target: Trx-6×His-BCL6 (human BCL6 BTB domain covering amino-acid sequence 5-129) (Homo sapiens)
# Construct: made in house
# test summary: HTRF assay (BCL6 / BCOR peptide)
# Assay type: binding
# assay context: 1 nM Trx-6×His-BCL6, 300 nM BCOR-AF633 peptide, 2 hours incubation at room temperature; read-out: HTRF avg pIC50 (converted)
measured quantity: IC50 (nM)

>>> observed("Cn1c(=O)c2c(c3cc(Nc4nc(N5CC(F)C5)ncc4Cl)ccc31)N[C@@H](C1CC1)C(F)(F)CO2 [Example 11q]")
4.79
>>> observed("Cn1c(=O)c2c(c3cc(Nc4nc(N5C[C@H](O)C[C@H](F)C5)ncc4Cl)ccc31)N[C@@H](C1CC1)C(F)(F)CO2 [Example 9a-1]")
1.82
>>> observed("Cn1c(=O)c2c(c3cc(Nc4cc(N5CCC(F)(F)CC5)ncc4Cl)ccc31)N[C@@H](C1CC1)C(F)(F)CO2 [Example 13b]")
30.9

A = C[C@@H]1CCCN(c2ncc(Cl)c(Nc3ccc4c(c3)c3c(c(=O)n4C)OCC(F)(F)[C@H](C4CC4)N3)n2)C1 [Example 1l]
B = Cn1c(=O)c2c(c3cc(Nc4nc(N5CCN6CCCC6C5)ncc4Cl)ccc31)N[C@@H](C1CC1)C(F)(F)CO2 (mixture of isomers) [Example 12h]
C = CC(=O)N(C)[C@H]1CN(c2ncc(Cl)c(Nc3ccc4c(c3)c3c(c(=O)n4C)OCC(F)(F)[C@H](C4CC4)N3)n2)CCC1(F)F [Example 9n]
D = Cn1c(=O)c2c(c3cc(Nc4nc(N5CCCC(C)(F)C5)ncc4Cl)ccc31)N[C@@H](C1CC1)C(F)(F)CO2 (mixture of isomers) [Example 11z]
Order the records, beginning with the lowest IC50 and ending with the highest. # format: label list in the order the request specifies
B, C, D, A
(B: 2.04 nM, C: 4.9 nM, D: 13.2 nM, A: 25.7 nM)

* * *

# assayed target: Trx-6×His-BCL6 (human BCL6 BTB domain covering amino-acid sequence 5-129) (Homo sapiens, UniProt P41182)
# Construct: made in house
# test summary: HTRF assay (BCL6 / BCOR peptide)
# Format: binding
# assay context: 1 nM Trx-6×His-BCL6, 300 nM BCOR-AF633 peptide, 2 hours incubation at room temperature; read-out: HTRF avg pIC50 (converted)
measured quantity: IC50 (nM)

>>> observed("CC(=O)N[C@@H]1C[C@H](C)CN(c2ncc(Cl)c(Nc3ccc4c(c3)c3c(c(=O)n4C)OCC(F)(F)[C@H](C4CC4)N3)n2)C1")
3.16
>>> observed("Cn1c(=O)c2c(c3cc(Nc4nc(N5CC[C@@H](F)[C@@H](F)C5)ncc4Cl)ccc31)N[C@@H](C1CC1)C(F)(F)CO2 (racemic) [Example 10a]")
12.3

I = CN1CCCN(c2ncc(Cl)c(Nc3ccc4c(c3)c3c(c(=O)n4C)OCC(F)(F)[C@H](C4CC4)N3)n2)CC1 [Example 11a]
II = Cn1c(=O)c2c(c3cc(Nc4nc(N5CC6CC(C5)O6)ncc4Cl)ccc31)N[C@@H](C1CC1)C(F)(F)CO2 [Example 12d]
Just curious, which one has the larger IC50 reading, I or II ? Please reply using the label of the selected record.
II

1 = CCC1CCCN(c2ncc(Cl)c(Nc3ccc4c(c3)c3c(c(=O)n4C)OCC(F)(F)[C@H](C4CC4)N3)n2)C1 (mixture of isomers) [Example 11b]
2 = Cc1noc(-c2cc(Nc3ccc4c(c3)c3c(c(=O)n4C)OCC(F)(F)[C@H](C4CC4)N3)c(Cl)cn2)n1
3 = Cn1c(=O)c2c(c3cc(Nc4nc(N5CC(C(F)F)C5)ncc4Cl)ccc31)N[C@@H](C1CC1)C(F)(F)CO2 [Example 11u]
Order the records by IC50, with each subsequent value no larger than the one before. Provide the labels, sequenced as the question asks.
1, 3, 2
(1: 33.1 nM, 3: 11.5 nM, 2: 3.47 nM)

a = CCN1CC2CCC(C1=O)N2c1ncc(Cl)c(Nc2ccc3c(c2)c2c(c(=O)n3C)OCC(F)(F)[C@H](C3CC3)N2)n1 (mixture of isomers)
b = Cn1c(=O)c2c(c3cc(Nc4nc(N5CCN(C6CC6)C(=O)C5)ncc4Cl)ccc31)N[C@@H](C1CC1)C(F)(F)CO2
c = Cn1c(=O)c2c(c3cc(Nc4nc(N5CCCC(C(F)F)C5)ncc4Cl)ccc31)N[C@@H](C1CC1)C(F)(F)CO2 (mixture of isomers) [Example 11r]
d = Cn1c(=O)c2c(c3cc(Nc4nc(N5CCCC6(CC6)C5)ncc4Cl)ccc31)N[C@@H](C1CC1)C(F)(F)CO2 [Example 11l]
Falling order of IC50, please. Record the ranking as a list of labels in the requested order.
d, c, a, b

A = CCNC(=O)C1CN(c2ncc(Cl)c(Nc3ccc4c(c3)c3c(c(=O)n4C)OCC(F)(F)[C@H](C4CC4)N3)n2)CCC1(F)F (mixture of isomers)
B = C[C@H]1CN(c2ncc(Cl)c(Nc3ccc4c(c3)c3c(c(=O)n4C)OCC(F)(F)[C@H](C4CC4)N3)n2)CC(=O)N1C
Compare A and B by numeric IC50 and name the larger one. Pick one; state its label.
A

* * *

# assayed target: Trx-6×His-BCL6 (human BCL6 BTB domain covering amino-acid sequence 5-129) (Homo sapiens)
# Construct: made in house
# test summary: HTRF assay (BCL6 / BCOR peptide)
# Type: binding
# assay context: 1 nM Trx-6×His-BCL6, 300 nM BCOR-AF633 peptide, 2 hours incubation at room temperature; read-out: HTRF avg pIC50 (converted)
measured quantity: IC50 (nM)

I = C[C@H]1C[C@@H](OCCN(C)C)CN(c2ncc(Cl)c(Nc3ccc4c(c3)c3c(c(=O)n4C)OCC(F)(F)[C@H](C4CC4)N3)n2)C1 [Example 12x28]
II = CC1CC(CC(=O)N2CCC2)CN(c2ncc(Cl)c(Nc3ccc4c(c3)c3c(c(=O)n4C)OCC(F)(F)[C@H](C4CC4)N3)n2)C1 (single isomer, unassigned) [Example 12x16b]
III = Cn1c(=O)c2c(c3cc(Nc4ncncc4Cl)ccc31)N[C@@H](C1CC1)C(F)(F)CO2 [Example 6a]
IV = Cn1c(=O)c2c(c3cc(Nc4cc(N5CCC(F)(F)CC5)ncc4F)ccc31)N[C@@H](C1CC1)C(F)(F)CO2 [Example 13f04]
Parameters: sort_by = IC50; order = desc; input = items above. # format: label list in the order the request specifies
IV, III, II, I
